- Tested on: Acinetobacter baumannii
- test_name: Antibacterial activity against Carbapenem-resistant Acinetobacter baumannii clinical isolate incubated for 16 to 24 hrs by CLSI based broth microdilution method
- Type: functional
- study_conditions: time 16-24 hrs
Exercise: state measured MIC for each of the compounds provided.

Some compounds with known MIC results, for comparison:
>>> result("CC(C)C[C@H](C(=O)N[C@H]1C(=O)N[C@@H](CC(N)=O)C(=O)N[C@H]2C(=O)N[C@H]3C(=O)N[C@H](C(=O)N[C@H](C(=O)O)c4cc(O)cc(O)c4-c4cc3ccc4O)[C@H](O)c3ccc(c(Cl)c3)Oc3cc2cc(c3O[C@@H]2O[C@H](CO)[C@@H](O)[C@H](O)[C@H]2O[C@H]2C[C@](C)(N)[C@H](O)[C@H](C)O2)Oc2ccc(cc2Cl)[C@H]1O)N(C)Cc1ccc(-c2ccc(CN)cc2)cc1")
"> 128 µg/mL"
>>> result("CC(C)C[C@@H](N)C(=O)N[C@H]1C(=O)N[C@@H](CC(N)=O)C(=O)N[C@H]2C(=O)N[C@H]3C(=O)N[C@H](C(=O)N[C@H](C(=O)NCc4ccc(-c5cccc(CN)c5)cc4)c4cc(O)cc(O)c4-c4cc3ccc4O)[C@H](O)c3ccc(c(Cl)c3)Oc3cc2cc(c3O[C@@H]2O[C@H](CO)[C@@H](O)[C@H](O)[C@H]2O[C@H]2C[C@](C)(N)[C@H](O)[C@H](C)O2)Oc2ccc(cc2Cl)[C@H]1O")
"> 128 µg/mL"

Next, consider the following compound.
// query Give its MIC value. Item: CC(C)C[C@@H](N)C(=O)N[C@H]1C(=O)N[C@@H](CC(N)=O)C(=O)N[C@H]2C(=O)N[C@H]3C(=O)N[C@H](C(=O)N[C@H](C(=O)NCCOCCOCCNC(=N)N)c4cc(O)cc(O)c4-c4cc3ccc4O)[C@H](O)c3ccc(c(Cl)c3)Oc3cc2cc(c3O[C@@H]2O[C@H](CO)[C@@H](O)[C@H](O)[C@H]2O[C@H]2C[C@](C)(N)[C@H](O)[C@H](C)O2)Oc2ccc(cc2Cl)[C@H]1O
// result > 128 µg/mL
